Tested on: MDA-MB-468 breast
experimental-details: NCI-60 one-dose screen, 48 h
measurement-context: 10 µM unless noted
Compounds without any hit were thinned out: in the full panel of roughly 83,000, 20% have a hit. Active and inactive are the calls of the source. Rule for the calls: active = growth percent below 10; inactive = the rest.
Assign a class; possible classes are active, inactive

Reference set, count: 3
molecule	test-system	group-label
COc1ccc(-c2nc(C#N)c(N3CCC(S(=O)(=O)N4CCOCC4)CC3)o2)cc1	MDA-MB-468 breast	inactive
C=Cc1cnc(Nc2ccc(OC)cc2)nc1NCCCNC(=O)C1CCC1	MDA-MB-468 breast	inactive
S=c1[nH]cccc1-c1nnc2n1Nc1nc3ccc(Cl)cc3cc1CS2	MDA-MB-468 breast	inactive

Each molecule tested received a call. Report the one for c1ccc(-c2n(Cc3ccc4ccccc4c3)cc[n+]2Cc2ccc3ccccc3c2)cc1 . active

Also check COc1cc2c(c(OC)c1OC)CCC(c1cccc(NC(=O)c3cccc(Cl)c3)c1)O2 (stereo unspecified) inactive

Here is the next molecule: CC(C)c1ccc(-n2c(=S)[nH]c3sc4c(c3c2=O)CCC(=O)C4)cc1 inactive

Same for Cn1cc(-c2nn3cc(-c4cccnc4)nc3s2)c2ccccc21 active

Request: Cc1cc(C)n(C(=O)c2nn(-c3ccc(Cl)cc3)cc2O)n1 inactive

Repeat for the following molecule: COc1ccc2cn3c4ccc(O)cc4[nH]c(=O)c3c2c1 active

For C#Cc1cccc(NC(=O)Nc2ccc(NC(=O)CCl)cc2)c1 then? active

What do we get for COc1cc(C)ccc1C(=O)c1ccc(C)cc1OC ? active

###

Test system: MDA-MB-468 breast
experimental-details: NCI-60 one-dose screen, 48 h
measurement-context: 10 µM unless noted
Compounds without any hit were thinned out: in the full panel of roughly 83,000, 20% have a hit. Activity calls are given as the source filed them. The calls were made as follows: active = growth percent below 10; inactive = the rest.
Answer with one of the outcomes given here: 1.0 (active), 0.0 (inactive)

Below, 6 compounds whose answers are already recorded.
compound	test-system	group-label
COc1ccccc1/C=C/C(=O)Nc1ccc(F)cc1	MDA-MB-468 breast	0.0
CCN(CC)CCCC(C)Nc1c(-c2ccccc2)cnc2cc(Cl)ccc12 (centres undefined)	MDA-MB-468 breast	0.0
CCc1c2c(nc3ccc(OCc4ccc(B5OC(C)(C)C(C)(C)O5)cc4)cc13)-c1cc3c(c(=O)n1C2)COC(=O)[C@]3(O)CC	MDA-MB-468 breast	1.0
NNC(=O)CNC(=O)Nc1n[nH]c(=S)s1	MDA-MB-468 breast	0.0
O=c1[nH]c(-c2cccc(F)c2)cc2cc(F)ccc12	MDA-MB-468 breast	0.0
CC(C)c1ccc(NC(=O)Cc2ccc(Nc3ncnc4cc(-c5cnn(CCN(C)C)c5)ccc34)cc2)cc1	MDA-MB-468 breast	1.0

Which result was noted for this compound in the test: CC(C)c1ccc(C(=O)Nc2sc3cc(O)ccc3c2C#N)cc1 0.0

Also need Clc1ccc([I+]c2ccc(Cl)cc2Cl)c(Cl)c1 , thanks. 1.0

Okay, and COc1cc(/C=C/c2cc(/C=C/c3ccc(O)c(OC)c3)n(C(=O)c3ccccc3Br)n2)ccc1O ? 1.0

Query C/C(=C(/c1ccccc1)c1ccc(N2C(=O)c3cccc4c(NCc5ccccc5)ccc(c34)C2=O)cc1)c1ccccc1 next 0.0

How about this compound: Cc1ccc(Cn2c(O)c(N=NC(=O)c3ccc(S(N)(=O)=O)cc3)c3ccccc32)cc1 0.0

Now consider CCOC(=O)Nc1ccc(-c2nc(-c3cccc(O)c3)c(-c3ccnc(Br)c3)[nH]2)cc1 and answer again. 0.0

Moving on to the next compound: COc1cc(OC)c(C(=O)/C=C/c2cccc(OC(C)=O)c2)cc1CC=C(C)C 0.0

What would you report for CC(C)(C)CC(C)(C)c1ccc(O)c(Cc2ccc(Cl)cc2Cl)c1 ? 1.0

Next up: COc1ccc2c(c1)c(-c1noc(C(=O)c3cn(C)c4ccc(Br)cc34)n1)cn2C 0.0

Do the same for COc1ccc(NC(=O)c2nc(-c3cc(OC)c(OC)c(OC)c3)n(-c3cccc4ccccc34)n2)cc1OC please 0.0

Param item: COc1cc2nccc(Oc3ccc(NC(=O)C4(C(=O)Nc5ccc(F)cc5)CC4)cc3)c2cc1OC(=O)c1ccc(N)cc1 0.0

Queued: COc1ccccc1CNCCCN1C(=O)c2ccc3c4c(ccc(c24)C1=O)C(=O)N(CCCNCc1ccccc1OC)C3=O 1.0

For N#Cc1cnc2cc(OC[C@H](O)CO)c(NC(=O)CC3CSSC3)cc2c1Nc1ccc(OCc2cccc(F)c2)c(Cl)c1 then? 1.0

###

growth reference
Tested on: MDA-MB-468 breast
experimental-details: NCI-60 one-dose screen, 48 h (100 = growth as untreated, 0 = no growth, -100 = all killed)
measurement-context: 10 µM unless noted
The panel holds about 83,000 compounds, 20% with a hit somewhere; the sample as a whole holds those more often. The source made the active and inactive calls. Rule for the calls: active = growth percent below 10; inactive = the rest.

Data request, read-out growth, for COc1cc(C2CC(c3ccc4c(c3)OCO4)=NN2C(C)=O)cc(OC)c1OC (stereo unspecified) -26.8% (active)

Now give it for COc1ccc(/C=C/C(=O)c2cc3c(N)c(C(=O)Nc4cccc5ccccc45)sc3nc2C)cc1 too. 58.5% (inactive)

Can you check COc1ccc(Nc2cnc3cc(NS(=O)(=O)c4ccc(C)cc4)ccc3n2)cc1 next? 46.1% (inactive)

Thanks! And c1ccc(CNc2nc(Nc3ccccc3)nc3ccccc23)cc1 ? 13.2% (inactive)

Input CCCCn1cnc2c(SCc3ccc([N+](=O)[O-])cc3)nc(N)nc21 80.8% (inactive)

Can you check CCOC(=O)C/C(C)=N\NC(=O)c1ccncc1 next? 110% (inactive)

###

Test system: MDA-MB-468 breast
experimental-details: NCI-60 one-dose screen, 48 h (100 = growth as untreated, 0 = no growth, -100 = all killed)
measurement-context: 10 µM unless noted
This is part of a sample that, as a whole, favours compounds with a hit. Of some 83,000 tested, about 20% had one in any assay.
Quick reference: growth of the listed items.
Kindly provide the numeric value in % only, without the unit symbol.

compound	growth / %
C[C@@H]1CN(c2ccc3ncc(C#Cc4cncc(C(=O)Nc5ccc(CN6CCN(C)CC6)c(C(F)(F)F)c5)c4)n3n2)C[C@H](C)O1	-76.7
CCCOC(=O)C(O)c1ccccc1 (stereo unspecified)	102
O=C(/C=C/C=C/c1csc(Br)n1)NO	99.7

For the record FC(F)(F)c1cccc(Nc2nc3ccccc3nc2Nc2cccc(C(F)(F)F)c2)c1 , what value of growth is listed for MDA-MB-468 breast? -12.9

Would you kindly repeat that for COc1nccnn1 ? 82.9

Try this compound too: CNCCCC12CCC(c3ccccc31)c1ccccc12 29.4

Try COc1cc(CNS(=O)(=O)c2ccc(C)cc2)ccc1OCc1cn(-c2ccc(Br)cc2)nn1 next. 95.5

Query Clc1ccc(-c2nnc(-c3cccc4ccccc34)o2)cc1 next 19.1

Moving on to COc1ccc2[nH]cc(/C=N/Nc3nc4ccccc4s3)c2c1 40.6

###

System: MDA-MB-468 breast
experimental-details: NCI-60 one-dose screen, 48 h
measurement-context: 10 µM unless noted
About 83,000 compounds went through this panel and 20% of them were active in at least one assay; those are over-represented in the sample as a whole. The source made the active and inactive calls. Rule for the calls: active = growth percent below 10; inactive = the rest.
// allowed return values: active, inactive

Here's what some known entries look like.
compound	group-label
Cc1c2c(cc3c1[nH]c1ccccc13)C=NCC2	inactive
Cc1nc(Sc2nc3ccc([N+](=O)[O-])cc3s2)sc1C	active
C=CCNc1nnc(C)s1	inactive
Cc1ccc(S(=O)(=O)n2cc(C3C(Cl)C(=O)N3c3ccc(N4CCOCC4=O)cc3)c3ccccc32)cc1 (stereo unspecified)	inactive
CC(=O)OC[Si](C)(C)c1ccccc1	inactive
COc1cc2c(cc1OC)C(Sc1ccc(F)cc1)c1c(nc(N)c(C#N)c1N)O2 (stereo unspecified)	active
CC(C)c1ccc(C(=O)OCCCl)cc1	inactive
O=[N+]([O-])c1ccc(-c2cc3c(Nc4ccc(Cl)c(C(F)(F)F)c4)ncnc3s2)cc1	active

// param item: CCc1ccc2c(c1)N(CCO)C1=C(C(=O)OC1)C2c1ccccc1 (stereo unspecified) ; yields the recorded call inactive

Thanks! And CNCCCNCCCCNCCCN1C(=O)c2ccc3c4c(ccc(c24)C1=O)C(=O)N(CCCNCc1ccccc1OC)C3=O ? inactive

Next up: CC(C)(C)c1nc(-c2ccc(O)c(O)c2)cs1 inactive

###

System: MDA-MB-468 breast
experimental-details: NCI-60 one-dose screen, 48 h
measurement-context: 10 µM unless noted
This is part of a sample that, as a whole, favours compounds with a hit. Of some 83,000 tested, about 20% had one in any assay. Activity calls are given as the source filed them. The calls were made as follows: active = growth percent below 10; inactive = the rest.
// allowed return values: True = active, False = inactive

compound	group-label
CN(C)CCNc1nc2ccccc2c2c(=O)c3cc(F)ccc3sc12	True

Tell me the recorded outcome of this test for COCCCC/C(=N\OCCN)c1ccc(C(F)(F)F)cc1 . False

Please give the result for CCOC(=O)c1c(C)c2c(n1C)CSc1cc(S(=O)(=O)c3ccccc3)c(=O)[nH]c1-2 too. True

Then this compound: CCOC(=O)c1cc2c(n1Cc1cc(OC)c(OC)c(OC)c1)-c1oncc1CCC2 False

Can you check C=CCCCCCCCCC(=O)[O][Sn]([CH2]CCC)([CH2]CCC)[CH2]CCC next? True

Again, but for CC1=C(C(=O)OCC2CCN(C(=O)OC(C)(C)C)CC2)[C@H](c2cccc(C#N)c2)C2=C(CC(C)(C)CC2=O)N1 False

Then what about the compound N#CCC1=NC(c2cccs2)=Nc2ccccc2S1 ? False

Check Cc1cc(C)c2c(n1)sc1c(Nc3ccc(OCc4ccccc4)cc3)ncnc12 too. False

Try the compound C/C(=N\Nc1ccccc1)c1ccc(NC2=CC(=O)c3ccccc3C2=O)cc1 False

Now this one: Nc1ncnc(Nc2ccc(C(F)(F)F)cc2)n1 False

Now consider O=[N+]([O-])/C(=C/C=C/c1ccccc1)c1ccccc1 . True

Also C=CCn1ccc(=O)nc1SC , if possible. False

Can you check COc1ccccc1-c1nc2ccc3[nH]ncc3c2c2c1CCCC2 next? False

Same question, O=C(Nc1ccc(CN2CCOCC2)cc1)c1[nH]ncc1Nc1ncnc2sccc12 this time True

Repeat with CCOC(=O)CNC(=O)Sc1ccc(C(C)(C)C)cc1 False

One more compound: Clc1ccc(Cc2nc3ccccc3s2)cc1 False

Then CC[C@@H](C(=O)[C@@H](C)[C@@H](O)[C@H](C)[C@@H]1O[C@@H]([C@@H](CC)C(=O)ONC(=O)c2ccccc2O)CC[C@@H]1C)C1O[C@]2(C=CC(=O)[C@]3(CC[C@@](C)([C@H]4CC[C@](O)(CC)[C@H](C)O4)O3)O2)[C@H](C)C[C@@H]1C (stereo partly specified) ? False

Source of measurements: PubChem BioAssay (NCI)
